System: 439559-082-T-J2-PDC spheroids viability;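 also: spheroids exposed to the agents for 7 days before readout; percent of luminescence signal in DMSO vehicle wells taken as 100% viability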
Test: Anticancer human tumor 439559-082-T-J2-PDC patient-derived colon adenocarcinoma cell line growth inhibition [GQUAD]
Conditions: second compound 0.1 µM; first compound 0.0999 µM; active compounds read low
Description: DNA G-quadruplex Stabilizer Agents in Combinations in Complex Spheroids A high-throughput screen of multi-cell type tumor spheroids was designed to identify active combinations of DNA G-quadruplex stabilizer agents and targeted small molecules. […] Compounds. […] If the clinical Cmax for an agent had not been determined, the highest concentration tested was 10 microM. […]
metric.name: viability, T/C

The examples below pair each entry with its known result.
[[record]]
molecule = "Cc1[nH]c2ccccc2c1CCNCc1ccc(/C=C/C(=O)NO)cc1 + CN(C)c1ccc(Nc2c3ccc(NC(=O)CCN4CCCC4)cc3nc3cc(NC(=O)CCN4CCCC4)ccc23)cc1"
metric_name = "viability, T/C"
recorded_measurement = "83.8%"

[[record]]
molecule = "CC[C@@]1(O)C(=O)OCc2c1cc1n(c2=O)Cc2cc3c(CN(C)C)c(O)ccc3nc2-1 + CN(C)c1ccc(Nc2c3ccc(NC(=O)CCN4CCCC4)cc3nc3cc(NC(=O)CCN4CCCC4)ccc23)cc1"
metric_name = "viability, T/C"
recorded_measurement = "91.8%"


Query molecule follows.
Enquiry: Name the reported viability, T/C value associated with the molecule CC[C@@]1(O)C(=O)OCc2c1cc1n(c2=O)Cc2cc3c(CN(C)C)c(O)ccc3nc2-1 + Cc1[nH]c2ccc(F)cc2c1-c1nc2c3cccnc3c3ncccc3c2[nH]1
Return: 103%
